B1: HDV Ribozyme (parent)
chain: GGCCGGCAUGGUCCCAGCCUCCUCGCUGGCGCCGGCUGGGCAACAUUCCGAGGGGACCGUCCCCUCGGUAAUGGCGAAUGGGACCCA

Variants of: B1
Assay: self-cleavage, relative activity (ratio to wild type); higher = more cleavage; co-transcriptional
# thresholds on self-cleavage define classes: low bin (below 0.2), mid bin (0.2 to below 0.5), high bin (0.5 or more)

Use the examples below as a reference point.
C33A C86A :: mid bin
C32A C57G :: mid bin
G76A C86G :: high bin
G10A C32A :: low bin
G25U C84G :: low bin
G17U C19G :: low bin

Place this variant in its band: C3A G67U
high bin

Place this variant in its band: A16C C41U
high bin

Place this variant in its band: C32U G73U
mid bin

Place this variant in its band: C24G C57A
low bin

Place this variant in its band: C14G G39C
mid bin

Place this variant in its band: C15U G50U
high bin

Place this variant in its band: G10A A45C
mid bin

Place this variant in its band: G55A U65G
high bin

Place this variant in its band: U9A G25A
mid bin

Place this variant in its band: G5C C48A
low bin

Place this variant in its band: C3A A8U
mid bin

Place this variant in its band: C19A C86U
low bin

Place this variant in its band: G1C G50C
mid bin

Place this variant in its band: G10C A71C
high bin

Place this variant in its band: C33U G40C
mid bin

Place this variant in its band: G5C U69A
low bin

Place this variant in its band: C30A G76U
high bin

Place this variant in its band: C30A G39A
low bin

Place this variant in its band: C44G C49A
high bin

Place this variant in its band: G25A G82A
low bin
